- ASSAY_PROTOCOL: melting temperature; melt of duplexes
- ASSAY_CONTEXT: sodium 0.0675 M; strand 1 µM
Listed substances paired with reported Tm
Kindly answer with a numeric value in °C, unit omitted.

Reference set (3 entries):
- CGACGTGCCGCATGTGCTG+CAGCACATGGTGCACGTCG ((((((((..(((((((((+)))))))))..)))))))): 52
- CGACGTGCTACATGTGCTG+CAGCACATGTCGCACGTCG ((((((((.((((((((((+)))))))))).)))))))): 57.2
- CGACGTGCAATATGTGCTG+CAGCACATGTAGCACGTCG ((((((((.(.((((((((+)))))))).).)))))))): 52

[in] What value of measured Tm is listed for CGACGTGCCTGATGTGCTG+CAGCACATAAGGCACGTCG ((((((((((.((((((((+)))))))).)))))))))) ?
[out] 59

[in] What value of measured Tm is listed for CGACGTGCGGAATGTGCTG+CAGCACATTAAGCACGTCG ((((((((..(((((((((+)))))))))..)))))))) ?
[out] 55.8

[in] What value of measured Tm is listed for CGACGTGCCAAATGTGCTG+CAGCACATCCTGCACGTCG ((((((((...((((((((+))))))))...)))))))) ?
[out] 48.5

[in] What value of measured Tm is listed for CGACGTGCAGAATGTGCTG+CAGCACATTTAGCACGTCG ((((((((..(((((((((+)))))))))..)))))))) ?
[out] 53.3

Hello, the source for this data is the array DNA melting data of Ke et al., in case you need it.
